Test system: ncRNAs (SEQ ID NO 28-89)
Test: ncRNA arrays of melanocytes, keratinocytes, normal skin, melanoma cell lines and patient samples
Parameters: species or system human
Conditions: melanoma patient 23 sample compared to normal skin
READOUT_TYPE: ncRNA array expression, patient 23
Output spec: single numeric token, no unit.

Below, each entry is followed by its recorded ncRNA array expression, patient 23 result.
| SUBSTANCE | STUDY_TARGET | ncRNA array expression, patient 23 |
| --- | --- | --- |
| SEQ ID NO 39 (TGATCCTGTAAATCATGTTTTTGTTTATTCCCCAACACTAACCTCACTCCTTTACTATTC; listed as DNA, chemistry not given here; listed as Homo sapiens) | ncRNAs (SEQ ID NO 28-89) | −0.164 |
| SEQ ID NO 64 (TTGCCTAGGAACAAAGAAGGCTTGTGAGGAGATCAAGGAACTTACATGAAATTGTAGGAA; listed as DNA, chemistry not given here; listed as Homo sapiens) | ncRNAs (SEQ ID NO 28-89) | 0.9911 |
| SEQ ID NO 40 (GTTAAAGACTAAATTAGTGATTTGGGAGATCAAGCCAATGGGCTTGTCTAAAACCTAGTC; listed as DNA, chemistry not given here; listed as Homo sapiens) | ncRNAs (SEQ ID NO 28-89) | 1.125 |
| SEQ ID NO 56 (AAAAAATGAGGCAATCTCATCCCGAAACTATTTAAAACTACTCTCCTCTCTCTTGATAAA; listed as DNA, chemistry not given here; listed as Homo sapiens) | ncRNAs (SEQ ID NO 28-89) | −1.277 |

// assay ncRNAs (SEQ ID NO 28-89), entry SEQ ID NO 75 (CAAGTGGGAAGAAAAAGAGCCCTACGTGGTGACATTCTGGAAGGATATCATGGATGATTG; listed as DNA, chemistry not given here; listed as Homo sapiens) , ncRNA array expression, patient 23 value = 1.545

* * *

Test system: ncRNAs (SEQ ID NO 28-89)
Assay: ncRNA arrays of melanocytes, keratinocytes, normal skin, melanoma cell lines and patient samples
Set-up: species or system human
Settings: melanoma patient 2 sample compared to normal skin
Description: An ncRNA array platform that contains over 10,000 putative (>200 nt) ncRNAs including most of the known ncRNAs in mouse and human was conducted to evaluate ncRNAs within melanoma. Lack of coding potential was estimated by an algorithm that scores various characteristics of protein-coding genes, including open reading frame length, synonymous/non-synonymous base substitution rates and similarity to known proteins. […]
Recorded ncRNA array expression, patient 2 for the following substances

Below, each entry is followed by its recorded ncRNA array expression, patient 2 result.
| SUBSTANCE | ncRNA array expression, patient 2 |
| --- | --- |
| SEQ ID NO 48 (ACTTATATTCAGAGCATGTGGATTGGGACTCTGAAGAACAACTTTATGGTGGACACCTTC; listed as DNA, chemistry not given here; listed as Homo sapiens) | 0.9515 |
| SEQ ID NO 88 (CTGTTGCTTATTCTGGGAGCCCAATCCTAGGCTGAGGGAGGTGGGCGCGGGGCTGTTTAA; listed as DNA, chemistry not given here; listed as Homo sapiens) | −1.501 |
| SEQ ID NO 65 (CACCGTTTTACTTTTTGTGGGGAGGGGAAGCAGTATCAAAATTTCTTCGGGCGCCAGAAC; listed as DNA, chemistry not given here; listed as Homo sapiens) | −1.177 |

ncRNA array expression, patient 2 recorded for this substance, SEQ ID NO 38 (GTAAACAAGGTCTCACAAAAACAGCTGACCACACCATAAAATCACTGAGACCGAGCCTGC; listed as DNA, chemistry not given here; listed as Homo sapiens) , is −1.1813

ncRNA array expression, patient 2 recorded for this substance, SEQ ID NO 40 (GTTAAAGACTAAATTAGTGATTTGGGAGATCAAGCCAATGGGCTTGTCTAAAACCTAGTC; listed as DNA, chemistry not given here; listed as Homo sapiens) , is 1.341
